- target or system: T1, rhNav1.7α + β1-β2-β3 (rhesus monkey)
- T1 construct: also called rhNav1.7-beta1-beta2-beta3; rhesus Nav1.7α
- experiment: binding FACS, CHO FlpIn cells
Measured pEC50, listed per entry.
# pEC50 is unitless: minus log10 of the molar concentration; print number only

Example entries and their recorded answers appear below.
binder: F010302362 (VHH) VHH: EVQLVESGGGVVQPGGSLRLSCAASHRAFIRDVFTGWYRQAPGKQRELVARIYESGNTQYADSVKGRFTISRDNAKKTVYLQMNSLRPEDTALYYCLFSGTISTGREYRSGDYWGQGTLVTVSS
pEC50: 7.85
--
binder: F010302356 (VHH) VHH: EVQLVESGGGVVQPGGSLRLSCAASHRAFIRDLFTGWYRRAPGKQRELVARIYESGNTNYADSVKGRFTISRDNAKKTVYLQMNSLRPEDTALYYCLFSGTISTGREYRSGDYWGQGTLVTVSS
pEC50: 7.92
--
binder: F010302339 (VHH) VHH: EVQLVESGGGVVQPGGSLRLSCAASHRAFIRDVFTGWYRRAPGKQRELVARIYEGGNTQYADSAKGRFTISRDNAKKTVYLQMNSLRPEDTALYYCLFSGTISTGREYRSGDYWGQGTLVTVSS
pEC50: 8.17
--
binder: F010302338 (VHH) VHH: EVQLVESGGGVVQPGGSLRLSCAASHRAFIRDVFTGWYRRAPGKQRELVARIYESGNTQYADSAKGRFTISRDNAKKTVYLQMNSLRPEDTALYYCLFSGTISTGREYRSGDYWGQGTLVTVSS
pEC50: 8.10
--
binder: F010302358 (VHH) VHH: EVQLVESGGGVVQPGGSLRLSCAASSRQFIRDVFTGWYRQAPGKQRELVARIYNEGNTQYADSVKGRFTISRDNAKKTVYLQMNSLRPEDTALYYCLFSGTISTGREYRSGDYWGQGTLVTVSS
pEC50: 7.43
--
binder: F010301878 (VHH, G54E vs F0103464B09 (Kabat)) VHH: EVQLVESGGGLVQPGGSLRLSCATTSRAFIRDVFTGWYRRVPGKERELVARIYNEGNTNYADFAKGRFSISRDNAKKMVTLRMSNLKPEDTGVYYCLFSGTINTGREYRSGDYWGQGTLVTVSS
pEC50: 7.57
--
binder: F010301883 (VHH, I51V vs F0103464B09 (Kabat)) VHH: EVQLVESGGGLVQPGGSLRLSCATTSRAFIRDVFTGWYRRVPGKERELVARVYNGGNTNYADFAKGRFSISRDNAKKMVTLRMSNLKPEDTGVYYCLFSGTINTGREYRSGDYWGQGTLVTVSS
pEC50: 7.47

With those in mind, consider the next binder.
Task: Need pEC50 of F010302348 (VHH) VHH: EVQLVESGGGVVQPGGSLRLSCAASHRAFIRDLFTGWYRQAPGKQRELVARIYESGNTNYADSAKGRFTISRDNAKKTVYLQMNSLRPEDTALYYCLFSGTISTGREYRSGDYWGQGTLVTVSS , thanks.
Result: 7.85
